Target: p300 HAT domain (residues 1287-1666) (Homo sapiens (Human), UniProt Q09472)
Sequence (Q09472 1287-1666): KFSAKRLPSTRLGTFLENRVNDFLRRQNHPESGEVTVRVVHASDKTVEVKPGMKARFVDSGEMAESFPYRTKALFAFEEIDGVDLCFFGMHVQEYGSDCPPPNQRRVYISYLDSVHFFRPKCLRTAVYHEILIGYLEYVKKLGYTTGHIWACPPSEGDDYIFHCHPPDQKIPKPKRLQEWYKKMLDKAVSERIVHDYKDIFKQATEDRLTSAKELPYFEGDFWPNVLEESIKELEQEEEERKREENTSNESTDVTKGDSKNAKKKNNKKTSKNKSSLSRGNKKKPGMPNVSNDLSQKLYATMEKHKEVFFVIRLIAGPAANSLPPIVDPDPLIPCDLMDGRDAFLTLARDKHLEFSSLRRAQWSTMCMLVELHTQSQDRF
Assay: p300 HAT SPA assay (scintillation proximity assay, acetylation of biotinylated H3(1-21) peptide)
Type: biochemical
Details: P300 HAT SPA IC50, p300 HAT domain; average of at least 2 replicate titrations
RECORDED_METRIC: IC50 (µM)
Give bare numbers, in µM.

O=C(c1cn(CCO)c2ccccc12)C(NCCc1ccc(Cl)cc1)c1ccccc1 (single isomer, unassigned) [128 Isomer 2] :: 13.4

List the reported IC50 of each molecule below.
1. CCn1cc(C(=O)C(NCCc2ccc(Cl)cc2)c2ccccc2)c2ccccc21 (single isomer, unassigned) [129 Isomer 2]
2. CCn1cc(C(=O)C(NCCc2ccc(Cl)cc2)c2ccccc2)c2ccccc21 (single isomer, unassigned) [129 Isomer 1]
3. O=C(c1cn(CCO)c2ccccc12)C(NCCc1ccc(Cl)cc1)c1ccccc1 (single isomer, unassigned) [128 Isomer 1]

1. 1.81
2. 11.8
3. 42.1

---

Could you please report measured IC50 for the items listed next?
Target: p300 HAT domain (residues 1287-1666) (Homo sapiens (Human))
Experiment: p300 HAT SPA assay (scintillation proximity assay, acetylation of biotinylated H3(1-21) peptide)
Format: biochemical
Conditions: p300 HAT domain; average of at least 2 replicate titrations; read-out: P300 HAT SPA IC50
One number for each entry, in nM.

Please review the following examples before continuing.
Cn1cc(-c2ccc3c(C(=O)C(NCCc4ccc(C#N)cc4)c4ccccc4)c[nH]c3c2)nn1 (single isomer, unassigned) [114 Isomer 2] :: 19
O=C(c1c[nH]c2ccccc12)C(NCCc1ccc(Cl)cc1)c1cccnc1 (racemic) [43 Racemic] :: 4210
Cn1cc(-c2ccc3c(C(=O)C(NCCc4ccc(C(N)=O)cc4Cl)c4ccccc4)c[nH]c3c2)cn1 (racemic) [143 racemic] :: 266

List the reported IC50 of each compound below.
1. O=C(c1c[nH]c2ccccc12)C(NCCc1ccc(C(F)(F)F)cc1)c1ccccc1 (single isomer, unassigned) [21 Isomer 1]
2. COCCn1cc(-c2ccc3c(C(=O)C(NCCc4ccc(C#N)cc4)c4ccccc4)c[nH]c3c2)cn1 (single isomer, unassigned) [96 Isomer 1]
3. N#Cc1ccc(CCNC(C(=O)c2c[nH]c3cc(C(=O)NCCN4CCCC4=O)ccc23)c2ccccc2)cc1 (single isomer, unassigned) [164 Isomer 2]

715
182
140

---

Could you please report measured pIC50 for the items listed next?
Molecular target: p300 HAT domain (residues 1287-1666) (Homo sapiens (Human))
Assay: p300 HAT SPA assay (scintillation proximity assay, acetylation of biotinylated H3(1-21) peptide)
Type: biochemical
Conditions: p300 HAT domain; average of at least 2 replicate titrations; read-out: P300 HAT SPA IC50
One number for each entry, as −log10 of the molar value.

Please review the following examples before continuing.
CCNC(=O)c1ccc2c(C(=O)C(NCCc3ccc(C#N)cc3)c3ccccc3)cnn2c1 (single isomer, unassigned) [73 Isomer 2] :: 6.02
CNC(=O)Cc1ccc2c(C(=O)C(NCCc3ccc(C#N)cc3)c3ccccc3)c[nH]c2c1 (single isomer, unassigned) [62 Isomer 2] :: 5.48
N#Cc1ccc(CCNC(C(=O)c2c[nH]c3cc(N4CCCC4)ccc23)c2ccccc2)cc1 (single isomer, unassigned) [125 Isomer 2] :: 6.65

List the reported pIC50 of each compound below.
1. Cn1cc(-c2ccc3c(C(=O)C(NCCc4ccc(C(N)=O)cc4)c4ccccc4)c[nH]c3c2)cn1 (single isomer, unassigned) [139 Isomer 2]
2. COc1ccc(CCNC(C(=O)c2c[nH]c3ccccc23)c2ccccc2)cc1 (single isomer, unassigned) [8 Isomer 2]

1. 6.29
2. 6.06

---

Tested on: acetylation of chromatin at H3K18 (catalyzed by p300 and CBP) in HCT-116 cells
Test: H3K18Ac MSD cellular assay
Format: cell-based
Settings: 2 hr treatment, average of at least 2 replicate titrations
pEC50: −log10 of the molar value.
# label = y if pEC50 >= 6 else n

CC(CNC(C(=O)c1c[nH]c2ccccc12)c1ccccc1)c1ccc(Cl)cc1 (single isomer, unassigned) [26 Isomer 3] :: n
N#Cc1ccc(CCNC(C(=O)c2c[nH]c3cc(C(=O)NC4COC4)ccc23)c2ccccc2)cc1 (single isomer, unassigned) [174 Isomer 1] :: n
CC(CNC(C(=O)c1c[nH]c2ccccc12)c1ccccc1)c1ccc(Cl)cc1 (single isomer, unassigned) [26 Isomer 1] :: n
O=C(c1c[nH]c2cc(-c3ccncc3)ccc12)C(NCCc1ccc(F)cc1)c1ccccc1 (single isomer, unassigned) [82 Isomer 1] :: n
N#Cc1ccc(CCNC(C(=O)c2c[nH]c3cc(C(=O)NC4COC4)ccc23)c2ccccc2)cc1 (single isomer, unassigned) [174 Isomer 2] :: y
O=C(c1c[nH]c2cc(-c3ccncc3)ccc12)C(NCCc1ccc(F)cc1)c1ccccc1 (single isomer, unassigned) [82 Isomer 2] :: y
CC(Cc1ccc(Cl)cc1Cl)NC(C(=O)c1c[nH]c2cc(-c3cnn(C)c3)ccc12)c1ccccc1 (single isomer, unassigned) [97 Isomer 1] :: y
Cn1cc(-c2ccc3c(C(=O)C(NCCc4ccc(C#N)cc4)c4ccccc4)cnn3c2)cn1 (single isomer, unassigned) [79 Isomer 2] :: y
CC(CNC(C(=O)c1c[nH]c2ccccc12)c1ccccc1)c1ccc(Cl)cc1 (single isomer, unassigned) [26 Isomer 2] :: n
CCNC(=O)c1ccc2c(C(=O)[C@@H](NCCc3ccc(C#N)cc3)c3ccccc3)c[nH]c2c1 (single isomer, unassigned) [146 Isomer 1] :: y

Shifting focus to the compound that follows.
Is the recorded value of pEC50 equal to or greater than 6 for this compound? Cn1cc(-c2ccc3c(C(=O)C(NCCc4ccc(C#N)cc4)c4ccccc4)cnn3c2)cn1 (single isomer, unassigned) [79 Isomer 1]
y

---

Biological target: p300 HAT domain (residues 1287-1666) (Homo sapiens (Human), UniProt Q09472)
Assay: p300 HAT SPA assay (scintillation proximity assay, acetylation of biotinylated H3(1-21) peptide)
Type: biochemical
Details: p300 HAT domain; average of at least 2 replicate titrations; read-out: P300 HAT SPA IC50
RECORDED_METRIC: IC50 (nM)
Give bare numbers, in nM.

Please review the following examples before continuing.
COc1ccc(CCNC(C(=O)c2c[nH]c3c(CCC(=O)N(C)C)cccc23)c2ccccc2)cc1 (single isomer, unassigned) [29 Isomer 2] :: 6600
CN1CCN(c2ccc3c(C(=O)C(NCCc4ccc(C#N)cc4)c4ccccc4)c[nH]c3n2)CC1 (single isomer, unassigned) [121 Isomer 1] :: 2200
Cn1cnc(-c2ccc3c(C(=O)C(NCCc4ccc(S(N)(=O)=O)cc4)c4ccccc4)c[nH]c3c2)c1 (single isomer, unassigned) [115 Isomer 2] :: 389
O=C(c1n[nH]c2ccccc12)C(NCCc1ccc(Cl)cc1)c1ccccc1 (single isomer, unassigned) [47 Isomer 2] :: 20300
CCNC(=O)c1ccc2c(C(=O)C(NCC(C)c3ccc(C#N)cc3)c3ccccc3)c[nH]c2c1 (single isomer, unassigned) [75 Isomer 3] :: 447

List the reported IC50 of each molecule below.
1. CN(C)C(=O)c1cccc2c(C(=O)C(NCCc3ccc(Cl)cc3Cl)c3ccccc3)c[nH]c12 (single isomer, unassigned) [148 Isomer 2]
2. C[C@H](O)CNC(=O)c1ccc2c(C(=O)C(NCCc3ccc(C#N)cc3)c3ccccc3)c[nH]c2c1 (single isomer, unassigned) [168 Isomer 2]

1. 8050
2. 53.1

---

Target: p300 HAT domain (residues 1287-1666) (Homo sapiens (Human))
Assay: p300 HAT SPA assay (scintillation proximity assay, acetylation of biotinylated H3(1-21) peptide)
Type: biochemical
Conditions: p300 HAT domain; average of at least 2 replicate titrations; read-out: P300 HAT SPA IC50
RECORDED_METRIC: pIC50
One number for each entry, as −log10 of the molar value.

CN1CCC(c2ccc3c(C(=O)C(NCCc4ccc(C#N)cc4)c4ccccc4)c[nH]c3c2)CC1 (single isomer, unassigned) [64 Isomer 2] :: 7.10
CN(C)C(=O)c1ccc2c(C(=O)C(NCCc3ccc(Cl)cc3Cl)c3ccccc3)c[nH]c2c1 (single isomer, unassigned) [152 Isomer 2] :: 5.90

List the reported pIC50 of each compound below.
1. O=C(O)CCc1ccc2c(C(=O)C(NCCc3ccc(F)cc3)c3ccccc3)c[nH]c2c1 (single isomer, unassigned) [159 Isomer 1]
2. Cc1nc(C(=O)C(NCCc2ccc(C(N)=O)cc2)c2ccccc2)c2ccc(-c3cnn(C)c3)cn12 (single isomer, unassigned) [184 Isomer 1]
3. N#Cc1ccc(CCNC(C(=O)c2c[nH]c3cc(C(=O)NCCN4CCCC4)ccc23)c2ccccc2)cc1 (single isomer, unassigned) [176 Isomer 1]

[4.60, 6.17, 7.27]

List the reported pIC50 of each compound below.
1. Cn1cc(-c2ccc3c(C(=O)C(NCCc4ccc(C#N)cc4)c4ccccc4)c[nH]c3c2F)cn1 (single isomer, unassigned) [103 Isomer 1]
2. N#Cc1ccc(CCNC(C(=O)c2c[nH]c3cc(-c4cn[nH]c4)ccc23)c2ccccc2)cc1 (single isomer, unassigned) [98 Isomer 1]

1. 5.47
2. 6.31
